assay: Pharmacokinetics of compound II and boosting effect of ritonavir in fed male beagle dogs; format: in vivo; settings: male, beagle, dog, plasma, po, 10 mg/kg, 10 mg/kg compound II single oral, with Ritonavir 10 mg/kg twice daily

[
  {
    "molecule": "CC(C)CN(C[C@@H](O)[C@H](Cc1ccccc1)NC(=O)O[C@H]1CO[C@H]2OCC[C@H]21)S(=O)(=O)c1ccc2nc(NC3CCN(C4CCCC4)CC3)sc2c1 [Compound 7]",
    "Cmax": "879 ng/mL"
  }
]

* * *

The following compounds are shown together with reported pEC50 virus strain A values.
system: clinically isolated HIV strain A; assay: Cellular anti-viral assay in MT4-LTR-EGFP cells, mutant strain A; type: cell-based; conditions: MT4-LTR-EGFP cells, three days, GFP signal

[
  {
    "compound": "COCCN1CCC(Nc2nc3ccc(S(=O)(=O)N(CC(C)C)CC(O)C(Cc4ccccc4)NC(=O)OC4COC5OCCC45)cc3s2)C1 (stereo not shown)",
    "pEC50 virus strain A": 7.61
  },
  {
    "compound": "CC(C)CN(C[C@@H](O)[C@H](Cc1ccccc1)NC(=O)O[C@H]1CO[C@H]2OCC[C@H]21)S(=O)(=O)c1ccc2nc(NC3CCNC3)sc2c1 (stereo partly shown)",
    "pEC50 virus strain A": 5.93
  },
  {
    "compound": "CC(C)CN(C[C@@H](O)[C@H](Cc1ccccc1)NC(=O)O[C@H]1CO[C@H]2OCC[C@H]21)S(=O)(=O)c1ccc2nc(NC3CCN(Cc4cncs4)CC3)sc2c1",
    "pEC50 virus strain A": 8.38
  },
  {
    "compound": "CC(C)CN(CC(O)C(Cc1ccccc1)NC(=O)OC1COC2OCCC12)S(=O)(=O)c1ccc2nc(NC3CCN(Cc4cncs4)C3)sc2c1 (stereo not shown) [Compound 24]",
    "pEC50 virus strain A": 7.91
  },
  {
    "compound": "CC(C)CN(C[C@@H](O)[C@H](Cc1ccccc1)NC(=O)O[C@H]1CO[C@H]2OCC[C@H]21)S(=O)(=O)c1ccc2nc(NC3CCN(C(C)C)CC3)sc2c1",
    "pEC50 virus strain A": 7.89
  },
  {
    "compound": "CC(C)CN1CCC(Nc2nc3ccc(S(=O)(=O)N(CC(C)C)C[C@@H](O)[C@H](Cc4ccccc4)NC(=O)O[C@H]4CO[C@H]5OCC[C@H]54)cc3s2)CC1",
    "pEC50 virus strain A": 7.84
  },
  {
    "compound": "CC(C)CN1CCC(Nc2nc3ccc(S(=O)(=O)N(CC(C)C)CC(O)C(Cc4ccccc4)NC(=O)OC4COC5OCCC45)cc3s2)C1 (stereo not shown) [Compound 19]",
    "pEC50 virus strain A": 7.84
  },
  {
    "compound": "CC(C)CN(C[C@@H](O)[C@H](Cc1ccccc1)NC(=O)O[C@H]1CO[C@H]2OCC[C@H]21)S(=O)(=O)c1ccc2nc(NC3CCN(Cc4ccccn4)CC3)sc2c1",
    "pEC50 virus strain A": 8.06
  },
  {
    "compound": "CC(C)CN(CC(O)C(Cc1ccccc1)NC(=O)OC1COC2OCCC12)S(=O)(=O)c1ccc2nc(NC3CCN(Cc4cncs4)C3)sc2c1 (stereo not shown) [Compound 23]",
    "pEC50 virus strain A": 8.56
  },
  {
    "compound": "CC(C)CN1CCC(Nc2nc3ccc(S(=O)(=O)N(CC(C)C)CC(O)C(Cc4ccccc4)NC(=O)OC4COC5OCCC45)cc3s2)C1 (stereo not shown) [Compound 20]",
    "pEC50 virus strain A": 8.23
  },
  {
    "compound": "CC(C)CN(CC(O)C(Cc1ccccc1)NC(=O)OC1COC2OCCC12)S(=O)(=O)c1ccc2nc(NC3CCN(Cc4ccccn4)C3)sc2c1 (stereo not shown)",
    "pEC50 virus strain A": 5.59
  },
  {
    "compound": "CC(C)CN(C[C@@H](O)[C@H](Cc1ccccc1)NC(=O)O[C@H]1CO[C@H]2OCC[C@H]21)S(=O)(=O)c1ccc2nc(NC3CCN(Cc4ccncc4)CC3)sc2c1",
    "pEC50 virus strain A": 8.26
  },
  {
    "compound": "CC(C)CN(C[C@@H](O)[C@H](Cc1ccccc1)NC(=O)O[C@H]1CO[C@H]2OCC[C@H]21)S(=O)(=O)c1ccc2nc(NC3CCN(C(=O)CN4CCOCC4)CC3)sc2c1",
    "pEC50 virus strain A": 6.84
  }
]
